# Tested on: Fibrinogen (Alexa647-labelled)
# assay details: fibrinogen binders on compound microarrays, profiling panel, artefact control for SMM control-protein annotation, biochemical, small-molecule microarray, 635/667 nm fluorescence (AID 1131);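 note: z-score merges 667 nm fluorescence with per-spot signal-to-noise over triplicate slides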
# run parameters: fibrinogen-A647 binding fluorescence, higher = more signal
Classification by composite z-score follows these ranges: lo: < -0.5; mid: ≥ -0.5 and < 0.6; hi: ≥ 0.6

Task item: Tag the class for O=C1OCCC=C[C@H]2OC34C=CCN(Cc5ccccc5)C(=O)[C@H]3N(CCCCCCO)C(=O)[C@@H]4C12 (stereo partly specified)
Reply: lo

Task item: Which category does the recorded composite z-score put CC(C)(C)N1CC=CC23O[C@@H]4/C=C\CCCOC(=O)C4[C@H]2C(=O)N(CCO)[C@@H]3C1=O (stereo partly specified) in?
Reply: mid

Task item: Consider COC(=O)[C@@]1(Cc2ccc(OC)cc2)[C@H]2c3cc(C(=O)N(C)C)n(Cc4c(OC)[nH]cc(C)c4=O)c3C[C@H]2CN1C(=O)c1ccccc1 . To which composite z-score class does it belong?
Reply: mid

Task item: State the band of CCN(CC)c1ccc(N2CC=CC34O[C@@H]5C=CCCOC(=O)C5[C@H]3C(=O)N(CCCCCO)[C@@H]4C2=O)cc1 (stereo partly specified)
Reply: mid

Task item: Kindly identify the class of C=C(COC)C(=O)CC[C@@H](OC(=O)c1cccnc1)c1ccc(CO)o1 .
Reply: mid

Task item: Form: Item = COc1ccc(C(O)C2C=CC3C(=O)N(c4ccccc4)C(=O)C3N2Nc2ccc([N+](=O)[O-])cc2)cc1OCc1ccccc1 (stereo unspecified) ; Class = ?
Reply: hi

Task item: Kindly state the category for this compound: CC(=CC1CCCCC1)[C@@H](NC(=O)c1ccc(C(F)(F)F)cc1)c1ccc(-c2ccccc2)cc1
Reply: mid

Task item: # bin lookup: classify O=C(CS)NCCCCCCNC(=O)[C@H]1C[C@H]2C(=O)NCC(=O)N2[C@H]1c1ccc(O)cc1 by its composite z-score
Reply: lo

Task item: Bin this entry: CC(C)(C)N1CC=CC23O[C@@H]4C=CCOC(=O)[C@@H]4[C@H]2C(=O)N(CCCCCO)[C@@H]3C1=O (stereo partly specified)
Reply: lo

Task item: Textbook exercise: identify the category of the compound given here, N#Cc1ccc(NN2C(C(O)c3ccc([N+](=O)[O-])cc3)C=CC3C(=O)N(c4ccccc4)C(=O)C32)cc1 (stereo unspecified) , according to its measured value.
Reply: hi

Task item: Entry CC(C)C(=C=CC[C@H](O)c1cccc(OCCO)c1)C[C@H](O)COCc1ccccc1 belongs to which category?
Reply: hi

Task item: Sort O=C1OCCC=C[C@H]2OC34C=CCN(Cc5ccccc5)C(=O)[C@H]3N(CCCCCO)C(=O)[C@@H]4C12 (stereo partly specified) into one of the categories.
Reply: lo

Task item: Lab log: CCC(CC)C(O)C1C=CC2C(=O)N(c3ccccc3)C(=O)C2N1Nc1ccc(C#N)cc1 (stereo unspecified) — assign composite z-score category
Reply: hi

Task item: Consider CO[C@H]1O[C@H](CO)[C@@H](OC(=O)Nc2ccc(Oc3ccccc3)cc2)[C@H](OC(=O)Nc2ccccc2)[C@H]1OC(=O)Nc1ccccc1 . To which composite z-score class does it belong?
Reply: hi

Task item: Which composite z-score category applies to COc1ccc(CCN2C(=O)[C@@]3(Cc4ccccc42)c2ccccc2C(=O)N(Cc2ccccc2Cl)[C@H]3c2ccc(CO)cc2)cc1 here?
Reply: lo

Task item: Categorize the following entry: N#Cc1ccc(NN2C(C(O)C3CCCCC3)C=CC3C(=O)N(c4ccccc4)C(=O)C32)cc1 (stereo unspecified)
Reply: hi

* * *

# Test system: wheat germ agglutinin (Triticum aestivum), Alexa647-labelled
# assay details: wheat germ agglutinin binders on compound microarrays, profiling panel, artefact control for SMM control-protein annotation, biochemical, small-molecule microarray, 635/667 nm fluorescence (AID 1140);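 note: score merges 667 nm feature emission with signal to noise over triplicate slides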
# run parameters: WGA-A647 binding, 635 nm fluorescence, higher = more signal
I'd appreciate it if you could supply composite z-score values for the items below.
Respond using a number only.

Reported composite z-score ( O=C1N(CCS(=O)(=O)c2ccccc2)c2ccccc2C[C@@]12COC(c1ccc(OCCCO)cc1)=N2 ) = 0.611

The measured composite z-score associated with C=C(CCCC)C(=O)CC[C@H](OC(=O)c1cccnc1)c1cccc(OCCO)c1 reads -0.288

Given item CN1C(=O)C2C=CC(C(O)c3ccccn3)N(Nc3ccccc3)C2C1=O (stereo unspecified) , the value recorded as its composite z-score is 0.489

Recorded result, COC(=O)[C@@]1(Cc2ccccc2)[C@H]2c3cc(C(=O)N(C)C)n(Cc4cc(C)n(C)n4)c3C[C@H]2CN1C(=O)c1ccccc1 , composite z-score: 0.889

# composite z-score (compound: CO[C@H]1O[C@H](CO)[C@@H](OC(=O)Nc2ccc(Oc3ccccc3)cc2)[C@H](OC(=O)Nc2ccccc2)[C@H]1OC(=O)Nc1ccccc1 ) is 1.08

composite z-score for C=C(COC)/C(=C/C[C@H](OC(=O)c1ccncc1)c1cccc(OCCO)c1)c1cc(C(=O)OC)ccc1OC is 0.0332

* * *

I'd appreciate it if you could supply composite z-score values for the items below.
# target under test: Concanavalin-A (Canavalia ensiformis)
# assay details: ConA small-molecule binders, primary screen, artefact control for SMM control protein annotation, biochemical, small-molecule microarray, Alexa647 label, 635 nm (AID 1127);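 note: z combines 667 nm emission intensity with signal-to-noise across three replicate slides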
# run parameters: ConA-A647 binding fluorescence, higher = more signal
Give your answer as a number; write no unit.

Reported Concanavalin-A (Canavalia ensiformis) composite z-score for item CCOC(=O)C[C@H]1[C@H](OC(=O)c2ccc(-c3ccccc3)cc2)[C@@H](NC(=O)c2ccc3ccccc3c2)c2cc(OCCCO)ccc2N1C(=O)Cc1ccc(OC)cc1 was -0.101

Log: Concanavalin-A (Canavalia ensiformis), molecule CC(C)N1C(=O)[C@@]2(c3ccc([N+](=O)[O-])cc3)CC(=O)N(CC34CC5CC(CC(C5)C3)C4)[C@@H]2c2ccc(CO)cc21 , composite z-score = 0.134

Let me check: O=C1O[C@H](c2ccccc2)[C@H](c2ccccc2)N2[C@H]1[C@@H](C(=O)N1CCN(c3ncccn3)CC1)[C@]1(C(=O)Nc3ccccc31)[C@H]2c1ccc(OCCO)cc1 , system Concanavalin-A (Canavalia ensiformis), measured composite z-score is 0.536

Concanavalin-A (Canavalia ensiformis) data for C=CC[C@@]1(C(=O)N2CCOCC2)N=C(c2ccc(OCCCO)cc2)O[C@@H]1c1ccccc1N=[N+]=[N-] ; its composite z-score: 1.09

Bench note, Concanavalin-A (Canavalia ensiformis): entry COc1ccc(CCNC(=O)[C@@]2(Sc3ccc(C)cc3)CC(=O)N(Cc3ccccc3Cl)[C@@H]2c2ccc(CO)cc2I)cc1 , its composite z-score = -0.233

The molecule [N-]=[N+]=NCc1ccccc1C[C@]1(C(=O)O)N=C(c2ccc(OCCCO)cc2)O[C@H]1c1ccccc1 , when measured on Concanavalin-A (Canavalia ensiformis), yielded composite z-score of 1.11

Considering C=CCNC(=O)[C@@H]1[C@H]2C(=O)O[C@H](c3ccccc3)[C@H](c3ccccc3)N2[C@H](c2ccccc2OCCO)[C@@]12C(=O)Nc1ccc(C#CC3=CCCCC3)cc12 , its composite z-score with Concanavalin-A (Canavalia ensiformis) was recorded as 0.99

Bench note, Concanavalin-A (Canavalia ensiformis): entry COCCOC(=O)N1C(=O)[C@@]2(c3cc(C#CCC(C(=O)OC)C(=O)OC)ccc31)[C@H](C(=O)N1CCN(c3ncccn3)CC1)[C@H]1C(=O)O[C@H](c3ccccc3)[C@H](c3ccccc3)N1[C@@H]2c1ccc(OCCO)cc1 , its composite z-score = 1.09

Value sought: composite z-score, system Concanavalin-A (Canavalia ensiformis), item O=C1C2C=CC(C(O)c3cccs3)N(Nc3ccccc3F)C2C(=O)N1c1ccccc1 (centres undefined) . Result: 0.653

Hey, Concanavalin-A (Canavalia ensiformis) data for O=c1cccc(CCc2ccccc2)o1 : composite z-score came out at 0.283

Recorded composite z-score for Cc1cc(C)c(C(O)C2C=CC3C(=O)N(C)C(=O)C3N2Nc2ccccc2)c(C)c1 (centres undefined) on Concanavalin-A (Canavalia ensiformis) was 0.143

// returns composite z-score for COc1ccc([Si](C)(C)[C@H]2[C@H](CC(=O)N(CCO)Cc3ccccc3)O[C@@]3(C(=O)N(Cc4cccc(N5CCC5=O)c4)c4ccccc43)[C@@H]2C)cc1 with Concanavalin-A (Canavalia ensiformis); value = 1.11

I looked up COC(=O)[C@@]1(Cc2ccccc2)N=C(c2ccc(OCCCO)cc2)O[C@H]1c1ccccc1N=[N+]=[N-] and its composite z-score for Concanavalin-A (Canavalia ensiformis) was 0.649

Note to self: composite z-score of CC=CC(O)C1C=CC2C(=O)N(c3ccccc3)C(=O)C2N1Nc1ccc(C(C)C)cc1 (centres undefined) with Concanavalin-A (Canavalia ensiformis) was 1.11

* * *

Assign composite z-score to each entry below.
# assay details: compound binding in COS7 lysate, probe aLAP1, primary screen, cell lysate, small-molecule microarray (AID 1124);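 note: lysate comes from COS7 cells expressing LAP1 and is applied at 0.3 µg/mL; score merges spot fluorescence near 667 nm with signal-to-noise over triplicate slides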
# run parameters: probe aLAP1, fluorescence, higher = more signal
Number only, no unit.

The reported value for CC1=C2[C@@H](CCc3ccccc3)OB(O)C[C@@H]2n2c(=O)n(-c3ccccc3)c(=O)n2C1 in terms of composite z-score is 0.0327

Just so you know, measured composite z-score for CN(C)CCCCCCNC(=O)[C@H]1C[C@H]2C(=O)N[C@@H](CCCCN)C(=O)N2[C@H]1c1ccc(O)cc1 came out at 1.16

composite z-score reported for this compound C=CCOC(=O)[C@H]1[C@@H]2C(=O)O[C@@H](c3ccccc3)[C@@H](c3ccccc3)N2[C@@H](c2ccc(OCCOC(=O)[C@@H]3C[C@@H]4C(=O)N5CCC[C@H]5C(=O)N4[C@@H]3c3ccc(O)cc3)cc2)[C@]12C(=O)Nc1ccccc12 : 0.261

Looking up COCCOC(=O)N1C(=O)[C@@]2(c3cc(C#CCCO)ccc31)[C@H](c1ccccc1OCCO)N1[C@H](c3ccccc3)[C@H](c3ccccc3)OC(=O)[C@H]1[C@@H]2C(=O)N1CCN(c2ncccn2)CC1 , I found its composite z-score recorded as 0.505

Field composite z-score (entry CC(C)C[C@@H]1NC(=O)[C@H]2C[C@@H](C(=O)NCCCCCNC(=O)CS)[C@@H](c3cccc(OCCO)c3)N2C1=O ) reads 0.438

The reported value for COCCOC(=O)N1C(=O)[C@@]2(c3cc(C#CCCO)ccc31)[C@H](c1ccc(O)cc1)N1[C@H](c3ccccc3)[C@H](c3ccccc3)OC(=O)[C@H]1[C@@H]2C(N)=O in terms of composite z-score is 1.73
